test system: blackgrass; experiment: Test B pre/postemergence blackgrass; format: in vivo, Alopecurus myosuroides; conditions: Rate 500 g/ha, Postemergence; scale 0 to 10, 0 no effect, 10 complete control
Endpoint label: Blackgrass plant response rating
Returns: the value as a bare number; no unit string appended.

Query: Output Blackgrass plant response rating of CC1Cc2cccc(-n3c(=O)on(C(=O)N(c4ccc(F)cc4)C(C)C)c3=O)c2O1 (centres unmarked) [Compound 281]
Reply: 2

Query: Output Blackgrass plant response rating of CC(C)N(C(=O)n1oc(=O)n(Cc2nnsc2Cl)c1=O)c1ccc(F)cc1F [Compound 320]
Reply: 0

Query: Output Blackgrass plant response rating of COc1cccc(C)c1-n1c(=O)on(C(=O)N(c2ccc(F)cc2)C(C)C)c1=O [Compound 62]
Reply: 2

Query: Output Blackgrass plant response rating of CCCCCCCCCCCCCCCCCCCn1c(=O)on(C(=O)N(c2ccc(F)cc2)C(C)C)c1=O [Compound 253]
Reply: 0

Query: Output Blackgrass plant response rating of CCN(Cc1ccccc1)C(=O)n1oc(=O)n(-c2ccccc2C)c1=O [Compound 71]
Reply: 0
